B1: library; a variant is named by its letters at N, in order (parent)
chain: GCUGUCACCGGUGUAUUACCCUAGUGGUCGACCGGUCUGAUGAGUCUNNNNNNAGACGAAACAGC

variants of: B1; assay: FACS-Seq fitted mean relative fluorescence mCherry/BFP without ligand (log10 relative fluorescence); ligand: hypoxanthine (xanthine aptamer); higher = higher reporter protein expression; details: HEK293T, ligand present: no
Outcome label depends on FACS-Seq fitted mean (log10) relative to 0.2: at/above gives label 1, below gives label 0.

INSERT INTO measurements (monomer_sequence, label_value) VALUES
  ('GCUGUCACCGGUGUAUUACCCUAGUGGUCGACCGGUCUGAUGAGUCUAGGCCAAGACGAAACAGC [AGGCCA]', 'label 1'),
  ('GCUGUCACCGGUGUAUUACCCUAGUGGUCGACCGGUCUGAUGAGUCUACGAAUAGACGAAACAGC [ACGAAU]', 'label 0'),
  ('GCUGUCACCGGUGUAUUACCCUAGUGGUCGACCGGUCUGAUGAGUCUUGAAGAAGACGAAACAGC [UGAAGA]', 'label 1'),
  ('GCUGUCACCGGUGUAUUACCCUAGUGGUCGACCGGUCUGAUGAGUCUGCAGAUAGACGAAACAGC [GCAGAU]', 'label 0'),
  ('GCUGUCACCGGUGUAUUACCCUAGUGGUCGACCGGUCUGAUGAGUCUAUGGUCAGACGAAACAGC [AUGGUC]', 'label 1'),
  ('GCUGUCACCGGUGUAUUACCCUAGUGGUCGACCGGUCUGAUGAGUCUCUCACUAGACGAAACAGC [CUCACU]', 'label 1'),
  ('GCUGUCACCGGUGUAUUACCCUAGUGGUCGACCGGUCUGAUGAGUCUAAAGUAAGACGAAACAGC [AAAGUA]', 'label 1'),
  ('GCUGUCACCGGUGUAUUACCCUAGUGGUCGACCGGUCUGAUGAGUCUCCGAGGAGACGAAACAGC [CCGAGG]', 'label 0'),
  ('GCUGUCACCGGUGUAUUACCCUAGUGGUCGACCGGUCUGAUGAGUCUCUCUGCAGACGAAACAGC [CUCUGC]', 'label 0'),
  ('GCUGUCACCGGUGUAUUACCCUAGUGGUCGACCGGUCUGAUGAGUCUAAAAUUAGACGAAACAGC [AAAAUU]', 'label 1'),
  ('GCUGUCACCGGUGUAUUACCCUAGUGGUCGACCGGUCUGAUGAGUCUGUGUAGAGACGAAACAGC [GUGUAG]', 'label 0'),
  ('GCUGUCACCGGUGUAUUACCCUAGUGGUCGACCGGUCUGAUGAGUCUAGCGCGAGACGAAACAGC [AGCGCG]', 'label 0'),
  ('GCUGUCACCGGUGUAUUACCCUAGUGGUCGACCGGUCUGAUGAGUCUAUGCAAAGACGAAACAGC [AUGCAA]', 'label 0'),
  ('GCUGUCACCGGUGUAUUACCCUAGUGGUCGACCGGUCUGAUGAGUCUCAAUUUAGACGAAACAGC [CAAUUU]', 'label 0'),
  ('GCUGUCACCGGUGUAUUACCCUAGUGGUCGACCGGUCUGAUGAGUCUGUACCAAGACGAAACAGC [GUACCA]', 'label 1'),
  ('GCUGUCACCGGUGUAUUACCCUAGUGGUCGACCGGUCUGAUGAGUCUUACUAGAGACGAAACAGC [UACUAG]', 'label 0'),
  ('GCUGUCACCGGUGUAUUACCCUAGUGGUCGACCGGUCUGAUGAGUCUACACUGAGACGAAACAGC [ACACUG]', 'label 1'),
  ('GCUGUCACCGGUGUAUUACCCUAGUGGUCGACCGGUCUGAUGAGUCUACUCCGAGACGAAACAGC [ACUCCG]', 'label 1'),
  ('GCUGUCACCGGUGUAUUACCCUAGUGGUCGACCGGUCUGAUGAGUCUUCUUUAAGACGAAACAGC [UCUUUA]', 'label 1'),
  ('GCUGUCACCGGUGUAUUACCCUAGUGGUCGACCGGUCUGAUGAGUCUACAUAAAGACGAAACAGC [ACAUAA]', 'label 1'),
  ('GCUGUCACCGGUGUAUUACCCUAGUGGUCGACCGGUCUGAUGAGUCUCCCAAAAGACGAAACAGC [CCCAAA]', 'label 1');
